molecular target: Proto-oncogene tyrosine-protein kinase receptor Ret (Homo sapiens)
Sequence (P07949 whole entry): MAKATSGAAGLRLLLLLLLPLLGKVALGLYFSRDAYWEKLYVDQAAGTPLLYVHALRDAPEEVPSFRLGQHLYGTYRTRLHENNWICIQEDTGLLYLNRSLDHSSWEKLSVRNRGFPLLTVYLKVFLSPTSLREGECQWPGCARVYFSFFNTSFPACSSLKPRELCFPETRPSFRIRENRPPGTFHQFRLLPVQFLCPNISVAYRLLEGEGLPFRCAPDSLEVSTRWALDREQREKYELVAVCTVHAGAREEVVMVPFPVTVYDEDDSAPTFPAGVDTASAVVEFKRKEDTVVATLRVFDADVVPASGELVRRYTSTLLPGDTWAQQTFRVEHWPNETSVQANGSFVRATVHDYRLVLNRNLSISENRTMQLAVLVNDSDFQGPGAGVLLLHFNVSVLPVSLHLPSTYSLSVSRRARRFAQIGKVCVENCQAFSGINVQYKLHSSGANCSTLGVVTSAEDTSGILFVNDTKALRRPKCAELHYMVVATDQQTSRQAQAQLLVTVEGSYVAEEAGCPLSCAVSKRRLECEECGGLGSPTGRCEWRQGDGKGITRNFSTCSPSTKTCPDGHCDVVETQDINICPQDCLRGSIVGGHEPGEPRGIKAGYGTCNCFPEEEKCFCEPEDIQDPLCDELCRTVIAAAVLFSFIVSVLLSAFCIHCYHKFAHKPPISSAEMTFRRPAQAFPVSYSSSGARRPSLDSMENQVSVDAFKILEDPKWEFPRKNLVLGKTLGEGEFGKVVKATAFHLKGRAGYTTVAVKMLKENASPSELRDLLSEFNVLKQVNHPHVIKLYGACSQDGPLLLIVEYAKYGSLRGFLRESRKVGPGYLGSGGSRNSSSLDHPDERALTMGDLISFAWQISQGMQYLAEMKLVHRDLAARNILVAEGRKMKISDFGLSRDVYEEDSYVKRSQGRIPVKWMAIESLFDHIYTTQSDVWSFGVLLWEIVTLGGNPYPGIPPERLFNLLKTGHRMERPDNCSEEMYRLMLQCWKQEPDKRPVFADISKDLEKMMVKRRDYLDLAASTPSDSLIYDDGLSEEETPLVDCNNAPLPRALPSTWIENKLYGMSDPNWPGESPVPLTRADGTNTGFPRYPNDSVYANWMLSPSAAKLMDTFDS
pKd: −log10 of the molar value.
MEASURED ENDPOINT: pKd

Form field: reported pKd of COc1cccc(Nc2ncnn3ccc(CN4CC[C@@H](N)[C@H](O)C4)c23)c1 > 6.65

====

target: Tyrosine-protein kinase ABL2 (Homo sapiens, UniProt P42684)
Sequence (P42684 whole entry): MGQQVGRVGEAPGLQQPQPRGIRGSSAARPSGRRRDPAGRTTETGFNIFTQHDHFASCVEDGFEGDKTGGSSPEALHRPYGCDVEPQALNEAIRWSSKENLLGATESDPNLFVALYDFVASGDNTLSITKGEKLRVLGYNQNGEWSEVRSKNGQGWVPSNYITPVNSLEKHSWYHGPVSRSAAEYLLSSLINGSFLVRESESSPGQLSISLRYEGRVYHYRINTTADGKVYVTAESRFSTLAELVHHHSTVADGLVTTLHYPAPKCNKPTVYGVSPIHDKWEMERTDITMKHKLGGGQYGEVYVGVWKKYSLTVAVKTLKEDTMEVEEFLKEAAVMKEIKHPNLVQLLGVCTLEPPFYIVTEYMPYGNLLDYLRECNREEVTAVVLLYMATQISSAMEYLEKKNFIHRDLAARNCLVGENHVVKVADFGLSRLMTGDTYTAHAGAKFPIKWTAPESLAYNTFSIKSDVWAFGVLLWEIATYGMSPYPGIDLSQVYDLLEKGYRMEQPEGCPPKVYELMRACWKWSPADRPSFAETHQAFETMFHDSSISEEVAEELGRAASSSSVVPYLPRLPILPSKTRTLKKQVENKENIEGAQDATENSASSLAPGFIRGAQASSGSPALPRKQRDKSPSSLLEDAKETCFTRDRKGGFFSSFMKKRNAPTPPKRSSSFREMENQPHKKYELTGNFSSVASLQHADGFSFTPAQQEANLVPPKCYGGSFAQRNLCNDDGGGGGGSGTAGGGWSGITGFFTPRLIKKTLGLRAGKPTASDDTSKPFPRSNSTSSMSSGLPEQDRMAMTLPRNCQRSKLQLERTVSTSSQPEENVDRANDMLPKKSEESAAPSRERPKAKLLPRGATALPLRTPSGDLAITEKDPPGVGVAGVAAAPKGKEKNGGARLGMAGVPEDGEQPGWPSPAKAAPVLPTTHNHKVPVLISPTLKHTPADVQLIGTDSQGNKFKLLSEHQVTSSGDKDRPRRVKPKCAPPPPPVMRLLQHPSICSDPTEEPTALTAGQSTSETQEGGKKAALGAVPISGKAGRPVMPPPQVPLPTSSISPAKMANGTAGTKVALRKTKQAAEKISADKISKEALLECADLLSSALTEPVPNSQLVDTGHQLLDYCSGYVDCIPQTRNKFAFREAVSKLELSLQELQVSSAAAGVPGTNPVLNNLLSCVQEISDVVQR
MEASURED ENDPOINT: Kd

Form field: reported Kd of COc1cccc(Nc2ncnn3ccc(CN4CC[C@@H](N)[C@H](O)C4)c23)c1 < 225 nM

====

experiment: cells; type: functional, cell-based; settings: Homo sapiens, UCH2, 72 h
Description: Antiproliferative activity against human UCH2 cells measured after 72 hrs by alamar blue assay
pIC50: −log10 of the molar value.
Please note: t applies when pIC50 is 5 or greater, and f applies otherwise.

Worked examples follow.
[[record]]
molecule = "C#Cc1cccc(Nc2ccnc3cc(OCCOC)c(OCCOC)cc23)c1"
assigned_category = "f"

[[record]]
molecule = "CS(=O)(=O)CCNCc1ccc(-c2ccc3ncnc(Nc4ccc(OCc5cccc(F)c5)c(Cl)c4)c3c2)o1 [LAPATINIB]"
assigned_category = "f"

[[record]]
molecule = "COc1cc2ncc(C#N)c(Nc3cccc(Br)c3)c2cc1OC"
assigned_category = "f"


Record COc1cc(Nc2ccnc3ccc(C(F)(F)F)cc23)cc(OC)c1OC ; criterion: pIC50 no lower than 5. Met? f

Also check COc1cc2ncnc(Nc3cccc(Br)c3)c2cc1OC f

Also check COc1cc(Nc2ccnc3ccc(Br)cc23)cc(OC)c1OC f

Also check COc1cc2ncnc(Nc3ccc(OCc4cccc(F)c4)c(Cl)c3)c2cc1OC f

====

Target: Cyclin-G-associated kinase (Homo sapiens, UniProt O14976)
Sequence (O14976 whole entry): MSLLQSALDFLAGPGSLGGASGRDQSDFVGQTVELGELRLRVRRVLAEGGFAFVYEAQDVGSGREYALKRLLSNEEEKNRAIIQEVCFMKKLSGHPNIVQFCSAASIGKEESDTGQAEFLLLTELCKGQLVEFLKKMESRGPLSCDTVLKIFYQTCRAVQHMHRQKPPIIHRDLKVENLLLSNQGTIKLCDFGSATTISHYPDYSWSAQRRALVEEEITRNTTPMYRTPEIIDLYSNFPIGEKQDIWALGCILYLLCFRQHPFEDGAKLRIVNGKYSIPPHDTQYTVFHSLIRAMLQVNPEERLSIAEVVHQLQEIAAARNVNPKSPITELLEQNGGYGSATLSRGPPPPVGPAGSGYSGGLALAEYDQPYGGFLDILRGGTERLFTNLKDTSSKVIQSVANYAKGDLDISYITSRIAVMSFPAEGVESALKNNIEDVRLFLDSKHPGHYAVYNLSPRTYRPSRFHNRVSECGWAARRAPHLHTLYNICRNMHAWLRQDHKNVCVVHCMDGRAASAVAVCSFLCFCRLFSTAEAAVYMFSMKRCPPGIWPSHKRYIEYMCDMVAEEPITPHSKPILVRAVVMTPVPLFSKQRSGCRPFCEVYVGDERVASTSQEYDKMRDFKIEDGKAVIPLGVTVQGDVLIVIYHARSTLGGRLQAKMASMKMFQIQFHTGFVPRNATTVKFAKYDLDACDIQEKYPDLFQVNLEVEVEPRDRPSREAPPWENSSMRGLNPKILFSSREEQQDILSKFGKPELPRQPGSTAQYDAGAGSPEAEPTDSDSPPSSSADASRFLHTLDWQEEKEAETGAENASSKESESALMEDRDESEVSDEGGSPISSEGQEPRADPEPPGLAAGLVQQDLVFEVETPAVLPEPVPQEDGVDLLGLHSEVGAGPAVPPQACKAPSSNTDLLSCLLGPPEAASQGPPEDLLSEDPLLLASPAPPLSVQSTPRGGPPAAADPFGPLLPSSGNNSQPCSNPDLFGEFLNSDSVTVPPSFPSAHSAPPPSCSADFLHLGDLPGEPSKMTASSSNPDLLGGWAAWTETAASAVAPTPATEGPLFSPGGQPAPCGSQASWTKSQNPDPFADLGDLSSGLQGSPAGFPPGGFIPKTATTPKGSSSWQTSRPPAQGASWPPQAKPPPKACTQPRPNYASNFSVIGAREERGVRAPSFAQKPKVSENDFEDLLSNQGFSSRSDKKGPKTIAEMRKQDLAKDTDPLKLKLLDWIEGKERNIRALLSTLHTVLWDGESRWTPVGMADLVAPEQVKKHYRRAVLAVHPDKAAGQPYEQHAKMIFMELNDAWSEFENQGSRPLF
Assay: Inhibition of tracer 5 binding to human N-terminal nano luciferase-fused GAK expressed in HEK293 cells measured after 2 hrs by nanoBRET assay
Format: cell-based
MEASURED ENDPOINT: pIC50
Give bare numbers, as −log10 of the molar value.

[[record]]
structure_string = "C#Cc1cccc(Nc2ncnc3cc(OC)c(OC)cc23)c1"
assayed_target = "Cyclin-G-associated kinase (Homo sapiens, UniProt O14976)"
assay_value = 7.14

[[record]]
structure_string = "COCCOc1cc2ncnc(Nc3cc(OC)c(OC)c(OC)c3)c2cc1OCCOC"
assayed_target = "Cyclin-G-associated kinase (Homo sapiens, UniProt O14976)"
assay_value = 5.59


Now look at this one.
Which measured pIC50 belongs to COc1cc2nccc(Nc3cc(OC)c(OC)c(OC)c3)c2cc1OC , tested on Cyclin-G-associated kinase (Homo sapiens, UniProt O14976)? 7.64

====

target: Epidermal growth factor receptor (Homo sapiens);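 also: human A431 cells pretreated 90 min, then EGF stimulated, sandwich ELISA measured decrease in EGF-induced receptor autophosphorylation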
Sequence (P00533 whole entry): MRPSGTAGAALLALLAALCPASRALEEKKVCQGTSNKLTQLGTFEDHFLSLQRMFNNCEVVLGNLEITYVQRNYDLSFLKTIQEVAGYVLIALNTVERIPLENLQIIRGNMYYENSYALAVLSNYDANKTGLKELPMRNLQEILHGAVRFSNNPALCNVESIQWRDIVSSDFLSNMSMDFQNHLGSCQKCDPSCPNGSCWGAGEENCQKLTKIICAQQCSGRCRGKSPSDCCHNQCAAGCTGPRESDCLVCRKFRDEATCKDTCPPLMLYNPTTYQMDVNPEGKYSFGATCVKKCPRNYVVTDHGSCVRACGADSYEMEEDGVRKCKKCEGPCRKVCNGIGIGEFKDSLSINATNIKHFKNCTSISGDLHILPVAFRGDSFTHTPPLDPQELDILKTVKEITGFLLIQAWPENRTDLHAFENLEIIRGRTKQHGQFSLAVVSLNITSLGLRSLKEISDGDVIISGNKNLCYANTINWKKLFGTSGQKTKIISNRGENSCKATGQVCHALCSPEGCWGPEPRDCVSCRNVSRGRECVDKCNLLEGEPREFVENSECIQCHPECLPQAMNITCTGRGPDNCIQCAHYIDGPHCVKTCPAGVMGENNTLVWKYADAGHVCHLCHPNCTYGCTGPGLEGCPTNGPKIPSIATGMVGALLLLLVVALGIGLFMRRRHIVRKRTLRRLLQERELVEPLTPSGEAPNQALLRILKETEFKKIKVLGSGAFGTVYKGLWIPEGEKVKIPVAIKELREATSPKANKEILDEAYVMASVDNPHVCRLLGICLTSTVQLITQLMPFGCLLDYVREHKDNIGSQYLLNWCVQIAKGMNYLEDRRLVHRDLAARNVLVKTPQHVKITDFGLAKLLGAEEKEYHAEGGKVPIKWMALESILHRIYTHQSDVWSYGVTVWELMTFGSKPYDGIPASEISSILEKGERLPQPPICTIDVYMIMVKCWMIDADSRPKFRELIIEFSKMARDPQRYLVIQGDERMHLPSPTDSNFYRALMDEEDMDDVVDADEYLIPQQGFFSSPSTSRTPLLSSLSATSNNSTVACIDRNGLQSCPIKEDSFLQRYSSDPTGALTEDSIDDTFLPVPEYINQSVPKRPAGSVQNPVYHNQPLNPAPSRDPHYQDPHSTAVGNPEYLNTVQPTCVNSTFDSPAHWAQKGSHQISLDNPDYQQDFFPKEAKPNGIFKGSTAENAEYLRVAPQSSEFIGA
Can you tell me IC50 for the items I'm about to list?

[[record]]
structure_string = "COc1cc(Nc2ccnc3ccc(C(F)(F)F)cc23)cc(OC)c1OC"
measured_endpoint = "IC50"
assay_value = "> 50 µM"

[[record]]
structure_string = "COc1cc2ncnc(Nc3ccc(OCc4cccc(F)c4)c(Cl)c3)c2cc1OC"
measured_endpoint = "IC50"
assay_value = "< 0.015 µM"

[[record]]
structure_string = "CC(C)(C)S(=O)(=O)c1cc2c(Nc3ccc4scnc4c3)ncnc2cc1OCCO"
measured_endpoint = "IC50"
assay_value = "> 50 µM"


Provide the reported IC50 of each entry below, same order.
1. COc1cc(Nc2ncnc3ccc(C(F)(F)F)cc23)cc(OC)c1OC
2. COc1cc(Nc2ccnc3ccc(Br)cc23)cc(OC)c1OC
3. COc1cc(Nc2cc(C)nc3ccc(C(F)(F)F)cc23)cc(OC)c1OC

1. > 50 µM
2. > 50 µM
3. > 50 µM

====

Can you tell me IC50 for the items I'm about to list?
assay: cells; type: functional, cell-based; settings: Homo sapiens, UCH1, 72 h
Description: Antiproliferative activity against human UCH1 cells measured after 72 hrs by alamar blue assay
Answers are plain numbers, in µM.

Sample answers from the record:
[[record]]
compound = "COc1cc2ncnc(Nc3ccc(OCc4cccc(F)c4)c(Cl)c3)c2cc1OC"
measured_endpoint = "IC50"
assay_value = 13

[[record]]
compound = "COCCOc1cc2ncnc(Nc3cc(OC)c(OC)c(OC)c3)c2cc1OCCOC"
measured_endpoint = "IC50"
assay_value = 25


Provide the reported IC50 of each entry below, same order.
1. COc1cc(Nc2cc(C)nc3ccc(C(F)(F)F)cc23)cc(OC)c1OC
2. C#Cc1cccc(Nc2ncnc3cc(OC)c(OC)cc23)c1
3. COc1cc2ncnc(Nc3ccc(F)c(Cl)c3)c2cc1NC(=O)/C=C/CN1CCCCC1 [DACOMITINIB ANHYDROUS]

37
0.92
0.05

Provide the reported IC50 of each entry below, same order.
1. COc1cc2nccc(Nc3ccc(OCc4cccc(F)c4)c(Cl)c3)c2cc1OC
2. C#Cc1cccc(Nc2ccnc3cc(OCCOC)c(OCCOC)cc23)c1
3. COc1cc(Nc2c(C#N)cnc3cc(OCCCN4CCN(C)CC4)c(OC)cc23)c(Cl)cc1Cl

2.6
7.6
15

Provide the reported IC50 of each entry below, same order.
1. COc1cc2ncc(C#N)c(Nc3cc(OC)c(OC)c(OC)c3)c2cc1OC
2. COc1cc2ncnc(Nc3cccc(Br)c3)c2cc1OC
3. CS(=O)(=O)CCNCc1ccc(-c2ccc3ncnc(Nc4ccc(OCc5cccc(F)c5)c(Cl)c4)c3c2)o1
4. CCOc1cc2ncc(C#N)c(Nc3ccc(F)c(Cl)c3)c2cc1NC(=O)/C=C/CN(C)C
5. CN1CCN(CCOc2cc(OC3CCOCC3)c3c(Nc4c(Cl)ccc5c4OCO5)ncnc3c2)CC1

11
0.66
3.2
0.09
4.3

====

assay: cells; type: functional, cell-based; details: Homo sapiens, UCH2, 72 h
pIC50: −log10 of the molar value.
Please note: 1 applies when pIC50 is 5 or greater, and 0 applies otherwise.

Worked examples follow.
[[record]]
molecule = "C#Cc1cccc(Nc2c(C#N)cnc3cc(OC)c(OC)cc23)c1"
assigned_category = 0

[[record]]
molecule = "COc1cc2/c(=N/c3ccc(Br)cc3F)nc[nH]c2cc1OCC1CCN(C)CC1 [VANDETANIB]"
assigned_category = 1

[[record]]
molecule = "COc1cc(N(C)c2ccnc3ccc(C(F)(F)F)cc23)cc(OC)c1OC"
assigned_category = 0


Record COc1cc(Nc2cc(C)nc3ccc(C(F)(F)F)cc23)cc(OC)c1OC ; criterion: pIC50 no lower than 5. Met? 0

Also check COCCOc1cc2ncnc(Nc3cc(OC)c(OC)c(OC)c3)c2cc1OCCOC 0

Also check C#Cc1cccc(Nc2ncnc3cc(OC)c(OC)cc23)c1 0

Also check CC(C)(C)S(=O)(=O)c1cc2c(Nc3ccc4scnc4c3)ncnc2cc1OCCO 0

Also check COc1cc2ncnc(Nc3ccc(F)c(Cl)c3)c2cc1NC(=O)/C=C/CN1CCCCC1 [DACOMITINIB ANHYDROUS] 1

Also check COc1cc(Nc2c(C#N)cnc3cc(OCCCN4CCN(C)CC4)c(OC)cc23)c(Cl)cc1Cl [BOSUTINIB] 0
